Target: NE uptake (NET), rat brain synaptosomes (Rattus norvegicus)
Construct: Rat brain synaptosomes were isolated from Sprague Dawley rats (200-250 g)
Assay: Uptake inhibition assay, [3H]NE, rat brain synaptosomes
pIC50: −log10 of the molar value.
measuredAttribute: pIC50

In [3]: df
Out[3]:
                                   molecule  measuredattribute  reportedresult
0  CNC(C)C(=O)c1ccc2c(c1)OCO2 (stereo not shown)              pIC50            6.89

* * *

Molecular target: serotonin (5HT) transporter (SERT) (Rattus norvegicus)
Construct: Rat brains were dissected and tissue was homogenized in cold lysis buffer; from tissue; host or cells: rat brain membrane preparation
Sequence (P31652 whole entry): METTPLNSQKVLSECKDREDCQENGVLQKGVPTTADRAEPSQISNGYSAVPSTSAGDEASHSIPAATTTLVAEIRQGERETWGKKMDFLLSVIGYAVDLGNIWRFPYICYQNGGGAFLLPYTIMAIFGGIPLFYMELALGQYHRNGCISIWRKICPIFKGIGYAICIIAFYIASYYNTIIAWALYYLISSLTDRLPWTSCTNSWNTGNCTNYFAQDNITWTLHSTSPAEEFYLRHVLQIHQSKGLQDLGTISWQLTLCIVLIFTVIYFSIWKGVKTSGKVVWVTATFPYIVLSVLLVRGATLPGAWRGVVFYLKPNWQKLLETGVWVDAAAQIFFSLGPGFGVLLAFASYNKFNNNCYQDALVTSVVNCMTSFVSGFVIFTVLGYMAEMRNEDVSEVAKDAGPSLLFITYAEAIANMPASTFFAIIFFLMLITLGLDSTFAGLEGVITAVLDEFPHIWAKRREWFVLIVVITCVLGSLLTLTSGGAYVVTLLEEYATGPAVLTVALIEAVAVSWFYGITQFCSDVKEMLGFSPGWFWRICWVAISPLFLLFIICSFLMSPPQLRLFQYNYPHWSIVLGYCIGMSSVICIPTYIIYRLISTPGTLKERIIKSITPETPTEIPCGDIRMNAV
Assay: Competitive radioligand binding, [3H]citalopram, rat brain membranes
Details: read-out: Ki, SERT; competitive radioligand binding, rat brain membranes; Cheng-Prusoff
measuredAttribute: Ki (nM)

                                   compound  measuredattribute  reportedresult
0  CNC(C)Cc1ccc2c(c1)OCO2 (stereo not shown) [MDMA, 3,4-Methylenedioxy methamphetamine, reference compound]                 Ki            2620

* * *

Biological target: serotonin (5HT) transporter (SERT) (Rattus norvegicus)
Construct: Rat brains were dissected and tissue was homogenized in cold lysis buffer; from tissue; host or cells: rat brain membrane preparation
Assay: Competitive radioligand binding, [3H]citalopram, rat brain membranes
Experimental: All studies were performed at Gifford Bioscience, Ltd. (Birmingham, UK) according to standard protocols. Radioligands used were: [^3H] Citalopram (PerkinElmer NET1039250UC); [^3H] Nisoxetine (PerkinElmer NET1084250UC); [^3H] […] A sample of the homogenate was analyzed for protein content using the Sigma® BCA assay. […] Filters were then dried under a warm air stream, sealed in polyethylene, scintillation cocktail added, and the radioactivity counted in a Wallac® TriLux 1,450 MicroBeta counter. […]
pKi: −log10 of the molar value.
measuredAttribute: pKi

In [3]: df
Out[3]:
                                   compound  measuredattribute  reportedresult
0  CNC(C)C(=O)c1ccc2c(c1)OCO2 (stereo not shown) [methylone]                pKi            5.38

* * *

Molecular target: 5HT release (SERT), rat brain synaptosomes (Rattus norvegicus)
Construct: Rat brain synaptosomes were isolated from Sprague Dawley rats (200-250 g)
Sequence (P31652 whole entry): as above
Assay: Release assay, [3H]5-HT, superfused rat brain synaptosomes
Experimental: Test compounds and synaptosomes were prepared as described for uptake inhibition assays. Synaptosomes treated with [^3H] 5-HT, [^3H] DA or [^3H] NE were loaded onto filter chambers containing GF/C filters and placed in a superfusion system. […] After the addition of scintillation cocktail, radioactivity was counted using a Wallac® TriLux 1,450 MicroBeta counter. […] Scintillation cocktail was added, and the filters counted to determine residual radioactivity. […]
measuredAttribute: EC50 (nM)

>>> df
                                   compound  reportedresult
0  CNC(C)C(=O)c1ccc2c(c1)OCO2 (stereo not shown) [methylone]             620

* * *

Target: 5HT reuptake (SERT), rat brain synaptosomes (Rattus norvegicus)
Construct: Rat brain synaptosomes were isolated from Sprague Dawley rats (200-250 g)
Sequence (P31652 whole entry): as above
Test: Uptake inhibition assay, [3H]5-HT, rat brain synaptosomes
pIC50: −log10 of the molar value.
measuredAttribute: pIC50

                                   compound  measuredattribute  reportedresult
0  CNC(C)C(=O)c1ccc2c(c1)OCO2 (stereo not shown)              pIC50            6.37
